# experimental_details: yeast display, Sf9 membrane polyspecificity reagent, FACS + sequencing; frameworks hold sequencing errors

biosequence	polyreactivity (PSR sort gate)
QVQLVESGGGLVQAGGSLRLSCAASGSTFGINAMGWYRQAPGKERELVASITRRGGSTYYADSVKGRFTISRDNAKNTVYLQMNSLKPEDTAVYYCNKTYRYGTPLYDYWGQGTQVTVSS	high polyreactivity
QVQLVESGGGLVQAGGSLRLSCAASGRTFGQNTMGWYRQAPGKERELVATITSDGGDTYYADSVKGRFTISRDNAKNTVYLQMNSLKPEDTAVYYCKADYAGPKYVGYTFRSFTMDYWGQGTQVTVSS	low polyreactivity
QVQLVESGGGLVQAGGSLRLSCASSGITFVVNAMVWYRQAPGKEREFVAAIDVRGGTTYYADSVKGRFTISRDNAKNSVYLQMNSLKPEDTAVYYCAASSTSGYDWGQGTQVTVSS	low polyreactivity
QVQLVESGGGLVQAGGSLRLSCAASGLIFGVYAMGWYRQAPGKESELVAAISKNGDRTYYADSVKGRFTISRDNAKNTVYLQMNCLKPEDTAVYYCAAVWARSTYGPYYYWGQGTQVTVSS	high polyreactivity
QVQLVESGRGVVQAGGSLRLSRADSGIIFLDHAMGWYRQAPGKEWELVAGINGGGRTDYADSVQGRFTISRDNAKNTVYLQMNSLTPEDTAVYYCAAESSWYSPDVNFWGQGTQVTVSS	low polyreactivity
QVQLVESGGGLVQAGGSLRLSCAASGNTFNDYAMGWYRQAPGKERELVASISSGGSTYYADSVKGRFTISRDNAKNTVYLQMNSLKPEDTAVYYCAAEWHYIYAYDYWGQGTQVTVSS	low polyreactivity
QVQLVESGGGLVQAGGSLRLSCAASGITFLPYTMGWYRQAPGKERELVATISWNGGSTYYADSVKGRFTISRDNAKNTVYLQMNSLKPEDTAVYYCAARQVQAPRSIGFYYWGQGTQVTVSS	high polyreactivity
QVQLVESGGGLVQAGGSLRLSCAASGSTFRSNAMGWYRQAPGKERVLVAAISRSGGSTYYADSVKGRFTISRDNAKNSVYLQMNSLKPEDTAVYYCAGRYSRDPRTGDYGYCGQGTQVTVSS	low polyreactivity
QVQLVESGGGLVQAGGSLRLSCAASGSIFQFYTMGWYRQAPGKERELVAAISSTGSTNYADSVKGRFTISRDNAKNTVYLQMNSLKPEDTAVYYCAAVGTYLAGYQFDYWGQGTQVTVSS	low polyreactivity
QVQLVESGGGLVQAGGSLRLSCGASGFIFGSYAMGWYRQAPGKERELVAAISWSGGGTYYADSVKGRFTISRDNAKNTVYLQMNRLNPEDTAVYYCGALTRYKTASGYDYWGQGTQVTVSS	high polyreactivity
QVQLVESGGGLFQAGGSLRLSCAASGRIFYYNAMGWYRQAPGKEREFVAAITYRGGSTYYADSVKGRFTISRDNAKITVYLQMNSLKPEDTAVYYCAARSAWQVAPRGRTVAFDYWGQGTQVTVSS	high polyreactivity
QVQLVESGGGLVQAGGSLRLSCAASGFIFGSYAMGWYRQAPGKERELVAAISTGGGSTYYADSVKGRFTISRDNAKNTVYLQMNSLKPEDTAVYYCATDYRVTVWHPYQWYIYGYWGQGTQVTVSS	low polyreactivity
QVQLVESGGGLVQAGGSLSLSCAATGSIFLHNAMGWYRQAPGKERELVAVITSRGGSTYYADSVKGRFTISRDNAKNTVYLQMNSLKPEDTAVYYCAAPAYHKRTSRGDYWGQGTQVTVSS	low polyreactivity
QVQLVESGGGLVQAGGSLRLSCAASGLTFNHNAMGWYRQAPGKERELVAAISRRGGSTYYADSVKGRFTISRDNAKNTVYLQMNSLKPEDTAVYYCNAPVKVRATTNWEYDYWGQGTQVTVSS	high polyreactivity
QVQLVESGGGLVQAGGSLRLSCAASGFTFKQNAMGWYRQAPGKERELVAAITRTGASTYYADSVKGRFTISRDNAKNTVYLQMNSLKPEDTAVYYCNAARRGSAYDYWGQGTQVTVSS	high polyreactivity
QVQLVESGGGLVQAGGSLRLSCAASGLTFGGNAMGWYRQAPGKERELVAAISWSDDTTDYADSVKGRLTISRDNAKNTVYLQMNSLKPEDTAVYYCAARLPFEHVDYWGQGTQVTVSS	low polyreactivity
QVQLVESGGGLVQAGGSLRLSCAASGSTFPYNAMGWYRQAPGKERELVADISGDSGSTYYADSVKGRFTISRDNAKNTVYLQMNSLKPEDTAVYYCAGEGVHYAGDYGTGYDYWGQGTQVTVSS	low polyreactivity
QVQLVESGGGLVQAGGSLRLSSAASGITFQAYPMGWYRQAPGKQRELVAAISNGGSTYYADSVKGRFTISRDNAKNTVYLEMNSLNPEDTAVYYCAAVSYYPARYGYWGQGTQVTVSS	high polyreactivity
QVQLVESGGGLVQAGGSLRLSCAASGLTFSCYAMGWYRQAPGKERELVASINYSGANTYYADSVKGRFTISRDNAKNTVYLQMNSLKPEDTAVYYCNTRRRRYQNERVTYDYWGQGTQVTVSS	high polyreactivity
QVQLVESGGGLVQAGGSLRLSCAASGFIFYKYGMGWYRQAPGKERELVAAINRRGGTTSYADSVKGRFTISRDNAKNTVYLQMNSLKPEDTAVYYCAASAPGGQDDYWGQGTQVTVSS	high polyreactivity
QVQLQESGGSLVQAGGSLRLSCAASGNILVLPHGLVSPGAERELVATITGGSITYYADSVKGRFTISRDNAKNTVYLQMNSLKPGDTDVYYCAVINIYHRPHPYWGQGTLVTVSS	high polyreactivity

----------
# experimental_details: yeast display, Sf9 membrane polyspecificity reagent, FACS + sequencing; frameworks hold sequencing errors
recorded_metric: polyreactivity (PSR sort gate)

biosequence	endpoint_result
QVQLVESGGGLVQAGGSLRLSCAASGYIFGYNTMGWYRQAPGKERELVATINWRGSRTYYADSVKARFTISLDNAKNTVYLQMNSLKPEDTAVYYCNADHQFRSSVSGDHDYWGQGTQVTVSS	high polyreactivity
QVQLVESGGGLVQAGGSLRLSCAASGRTFGKYAMGWYRQAPGKERELVAAITGDGGSTYYADSVKGRFTISRDNAKNTVYLQMNSLKPEDTAVYYCNADPQRRNYDYWGQGTQVTVSS	high polyreactivity

----------
# experimental_details: yeast display, Sf9 membrane polyspecificity reagent, FACS + sequencing; frameworks hold sequencing errors

biosequence	polyreactivity (PSR sort gate)
QVHLVESGGGLVQAGGILRLSCAASGFTFIHYGMGWYRQAPGKERELVAAISSRGGRTYYADSVKGRFTISRDNAKNTVYLQMNSLKPEDTAVYYCNRDYAVISYGEYDSWGQGTEVTVSS	high polyreactivity
QVQLVESGGGLVQAGGSLRLSCAASGSTLRAYAMGWYRQAPGKDRELVAAISGRGGRTYYADSVKGRFTISRDNAKNTVYLQMNSLKPEDTAVYYCATRYREPYVWPYDYWGRGTQVTVSS	high polyreactivity
QVQLQESGGGLVQEGGSLRLSCAASGNISPPADMGWYRPAPGKERELVASIGTGGTTNYADSVKGRFTISRDNAKNTVYLQMNSLKPDDTAVYYCAAVRYEYNPYDYWGQGTQVTVSS	low polyreactivity
QLQLHESGGGLVQAGGGLRLICAASGSISSTVFMGWYRQAPGKEREPVAAIAPCTTTYYADSLKGRFTISRDNAKNTVYLQKNSLRPEDTAVYYCAVFTDNRVAFLYWGQGTQVTLSS	low polyreactivity
QVQLVESGGGLVQAGGSLRLSSAASGFTFYLNALGGYRQAPGKERELVAAISSSGGITYYADSVKGRFTISRDNAKNTVYLQMNSLKPEYTAVYYCAAYWPKYRYEADRDYWGQGTQVTVSS	low polyreactivity

----------
# experimental_details: yeast display, Sf9 membrane polyspecificity reagent, FACS + sequencing; frameworks hold sequencing errors
recorded_metric: polyreactivity (PSR sort gate)

biosequence	endpoint_result
QVQLVESGGGLVQEGGSLRLSCAASGGIFSAYAMGWYRQAPGKERELVAAISRTGGSTYYADSVKGRFTISRDNAKITVYLQMTSLKPEDTAVYYCNADYRRYPEFDYWGQGTQVTVSS	high polyreactivity
QVQLVESGGGLGQAGGSLRLSCAASGNTFWAYAMGWYRQAPGKERELVAGISSRGSRTYFADSVKGRFTISRDNAKNTVYLQMNSLKPEDSAVDFCNALRTPPGYYPPFDYWGEGTQVTVSS	high polyreactivity
QVQLVESGGGLVQAGGSLRLSCAASGRIFWSNAMGWYRQAPGKERELVAAIRWSGGSTYYADSVKGRCTISRDNAKTTVYLQMNSLKPEDTAVYYCAASPYWSDWTKVDSWGQGTQVTVSS	low polyreactivity
QVQLVESGGGLVQAGGSLRLSCAASGSTFGYNAMGWYRQAPGKERELVAAIRRSGGSTYYADSVKGRFTISRDNAKNTVYLQMNSLKPEDTAVYYCAAAGGKRHEYWGQGTQVTVSS	high polyreactivity
QVQLVESGGGLVQPGGSLRLSCAASGRIFGWYARGWYRPAPGKERELVAAISRGGTRTNYADSVKGRFTISRDNAKNTVYLQMNSLKPEETAVYYCAARRYSRDFDYWGQGTQVTVSS	high polyreactivity
QVQLVESGGGLVQAGGSLRLSCAASGSIFKLYSMGWSRQAPGKERELVATIRWSGGSTYYADSVKGRFTISRDNAKNTVYLQMNSLKPEDTAVYYCAARRVRPNGYTSSPLDYWGQGTQVTVSS	high polyreactivity
QVQLVESGGGLVQAGGSLRLSCAASGFTFRYNAMGWYRQAPGKERELVAAITNGGSTYADSVKGRFTISRDNAKNTVYLQMNSLKPEDTAVYYCAADYFVLTYYLWSYSPYKSFYYWGQGTQVTLSS	low polyreactivity
QVQLVESGGGLVQAGGSLRLSCAASGSIFAGNTMGWYRQAPGKERELVARMTRAGSTYYADSVKGRFTITRDNAKNTVYLQMNSLKPEDTAVYYCASGPTGSLYRYYYWGQGSQVTVSS	high polyreactivity
QVQLVESGGGLVQAGGSLRLSCAASGRTFRENAMGWYRPAPGKERELVAAISWRAGSTYYADSVKGRFTISRDNAKNTVYLQMNSLKPEDTAVYYCAAKYTVSFYLWGTFNYWGQGTQVTVSS	high polyreactivity
QVQLVESGGGLVQAGGSLRLSCAASGIIFYVYAMGWYRQAPGKERELVAAISSSGGSTNYADSVKGRFTISRDNAKNTVYLQMNSLKPEDTAVYFCAAKWRTRGHTSARGYWGQGTQVTVSS	high polyreactivity
QVQLVESGGGLVQPGGSLRLSCAASGSIFYWYNMGWYRQAPGKERELVAAINDSGGSTHYADSVKGRFTISRDNEKNTFYLQMNSLKPEDTAVYYCAARKLSSYAYDYWGQGTQVTVSS	low polyreactivity
